- System: HNSC
- ASSAY_METHOD_TEXT: growth inhibition (% activity, log2 RLU normalised to DMSO / staurosporine); higher = more growth inhibition
- TEST_CONTEXT: 33 µM
ENDPOINT_LABEL: growth inhibition (%)

>>> test_value("NC(=O)N1c2ccccc2C=Cc2ccccc21")
2.65
>>> test_value("Oc1c(Br)cc(Br)c2cccnc12")
-0.441
>>> test_value("NC(=O)c1cccnc1")
0.303
>>> test_value("CC(C)OC(=O)OCOP(=O)(CO[C@H](C)Cn1cnc2c(N)ncnc21)OCOC(=O)OC(C)C")
0.819
>>> test_value("C[C@@H]1O[C@@H]1P(=O)(O)O")
0.39
>>> test_value("Cc1cc(NC(=O)C2=C(O)c3ccccc3S(=O)(=O)N2C)no1")
7.58
>>> test_value("CO[C@H]1C[C@@H]2CC[C@@H](C)[C@@](O)(O2)C(=O)C(=O)N2CCCC[C@H]2C(=O)O[C@H]([C@H](C)C[C@@H]2CC[C@@H](OCCO)[C@H](OC)C2)CC(=O)[C@H](C)/C=C(\\C)[C@@H](O)[C@@H](OC)C(=O)[C@H](C)C[C@H](C)/C=C/C=C/C=C/1C")
7.71
>>> test_value("CN1CCN(CCCN2c3ccccc3Sc3ccc(C(F)(F)F)cc32)CC1")
9.67
>>> test_value("Cc1ncc([N+](=O)[O-])n1CC(O)CCl (stereo unspecified)")
6.21
>>> test_value("Cc1ccc(O)c([C@H](CCN(C(C)C)C(C)C)c2ccccc2)c1")
8.98
>>> test_value("CC(=O)[C@H]1CC[C@H]2[C@@H]3C=CC4=CC(=O)CC[C@@]4(C)[C@@H]3CC[C@]12C")
6.39
